The origin of these recorded values is ChEMBL document CHEMBL3885861.

species: Rattus norvegicus; test: Open TG-GATES - Regimen: Single; format: toxicity, organism-based, Sprague-Dawley; set-up: regimen Single, gender Male, age 6 weeks; settings: in vivo, po, 100 mg/kg, 24 h, tissue Blood, route gavage, dose level Low
Recorded WBC for the following molecules

{"columns": ["MOLECULE", "UNIT_OF_MEASURE", "WBC"],
 "data": [
  ["O=NN1CCOCC1 [N-NITROSOMORPHOLINE]", "x10_2/uL", 88.5],
  ["CN(C)CCC=C1c2ccccc2COc2ccccc21 [DOXEPIN]", "x10_2/uL", 97.7],
  ["CCC1(c2ccccc2)C(=O)NC(=O)NC1=O [PHENOBARBITAL]", "x10_2/uL", 114.9],
  ["CN(C)C(=N)N=C(N)N [METFORMIN]", "x10_2/uL", 95.2]
]}

---

Entries and their measured KIDNEY_TOTAL follow.
species on record: Rattus norvegicus; experiment: Open TG-GATES - Regimen: Daily Repeat; format: toxicity, organism-based, Sprague-Dawley; parameters: regimen Daily Repeat, gender Male, age 6 weeks; conditions: in vivo, po, 0 mg/kg, […], tissue Kidney, route gavage, dose level Control, time 28 day

{"columns": ["COMPOUND", "KIDNEY_TOTAL / g"],
 "data": [
  ["O=NN(CCCl)C(=O)NC1CCCCC1", 2.7],
  ["CCC1(c2ccccc2)C(=O)NC(=O)NC1=O", 2.8],
  ["CC1=C(CC(=O)O)c2cc(F)ccc2/C1=C\\c1ccc([S+](C)[O-])cc1 (stereo unspecified)", 2.6],
  ["OCCOCCN1CCN(C(c2ccccc2)c2ccc(Cl)cc2)CC1 (stereo unspecified) [HYDROXYZINE]", 2.8],
  ["CCc1oc2ccccc2c1C(=O)c1cc(Br)c(O)c(Br)c1", 2.9],
  ["CC(C)N(CCC(C(N)=O)(c1ccccc1)c1ccccn1)C(C)C (stereo unspecified) [DISOPYRAMIDE]", 3.1],
  ["CCCCc1oc2ccccc2c1C(=O)c1cc(I)c(OCCN(CC)CC)c(I)c1", 2.7],
  ["CN(C)CCC=C1c2ccccc2COc2ccccc21 [DOXEPIN]", 2.7],
  ["CN(C)C(=N)N=C(N)N", 2.8],
  ["ClC(Cl)(Cl)Cl [CARBON TETRACHLORIDE]", 2.7],
  ["CC[C@H]1[C@@H]2C[C@H]3[C@@H]4N(C)c5ccccc5[C@]45C[C@@H]([C@@H]2[C@H]5O)N3[C@@H]1O", 2.9]
]}

---

species on record: Rattus norvegicus; assay: Open TG-GATES - Regimen: Single; format: toxicity, organism-based, Sprague-Dawley; design: regimen Single, gender Male, age 6 weeks; conditions: in vivo, po, 0 mg/kg, 3 h, tissue Blood, route gavage, dose level Control

{"columns": ["COMPOUND", "UNIT_OF_MEASURE", "MCH"],
 "data": [
  ["CC[C@H]1[C@@H]2C[C@H]3[C@@H]4N(C)c5ccccc5[C@]45C[C@@H]([C@@H]2[C@H]5O)N3[C@@H]1O", "pg", 21.8],
  ["O=NN(CCCl)C(=O)NC1CCCCC1", "pg", 21.7],
  ["CCC1(c2ccccc2)C(=O)NC(=O)NC1=O", "pg", 21.7],
  ["CCc1oc2ccccc2c1C(=O)c1cc(Br)c(O)c(Br)c1", "pg", 22.2],
  ["CC1=C(CC(=O)O)c2cc(F)ccc2/C1=C\\c1ccc([S+](C)[O-])cc1 (stereo not drawn)", "pg", 21.5],
  ["OCCOCCN1CCN(C(c2ccccc2)c2ccc(Cl)cc2)CC1 (stereo not drawn) [HYDROXYZINE]", "pg", 21.5],
  ["ClC(Cl)(Cl)Cl [CARBON TETRACHLORIDE]", "pg", 21.7],
  ["CN(C)CCC=C1c2ccccc2COc2ccccc21 [DOXEPIN]", "pg", 21.2]
]}
